Documented MIC80 across a set of molecules
System: Candida albicans
protocol-description: Potentiation of fluconazole-induced antifungal activity against fluconazole-resistant Candida albicans 901 assessed as fluconazole MIC by checker board microdilution assay
Type: functional
measured-metric: MIC80 (µg/mL)

> print(dat)
                                smiles.code  measured.metric  measured.result
1  CNC(=O)c1noc(-c2cc(-c3ccc(C)cc3)c(O)cc2O)c1-c1ccc(CN2CCCCC2)cc1            MIC80                1
2  CCNC(=O)c1noc(-c2cc(-c3ccc(C)cc3)c(O)cc2O)c1-c1ccc(CN2CCCCC2)cc1            MIC80                1
3  CCNC(=O)c1noc(-c2cc(-c3ccc(C)cc3)c(O)cc2O)c1-c1ccc(CN2CCOCC2)cc1            MIC80                1
4  CNC(=O)c1noc(-c2cc(-c3ccc(C)cc3)c(O)cc2O)c1-c1ccc(CN2CCOCC2)cc1            MIC80                2
